- Test system: MDAMB361
- ASSAY NAME: -log10 GI50 (growth inhibition 50%) (-log10(M)); higher = more potent growth inhibition
Note to self: values exactly at 5 are Criterion met. So -log10 GI50 at or above 5 is Criterion met, below is Criterion not met.

Task: Is reported -log10 GI50 greater than or equal to 5 here: `COc1cccc(-c2cc(=O)c3ccccc3o2)c1N`
Result: Criterion not met

Task: Is reported -log10 GI50 greater than or equal to 5 here: `CCC1=C[C@@H]2CN(C1)Cc1c([nH]c3ccccc13)[C@@](C(=O)OC)(c1cc3c(cc1OC)N(C)[C@H]1[C@@](O)(C(=O)OC)[C@H](OC(C)=O)[C@]4(CC)C=CCN5CC[C@]31[C@@H]54)C2`
Result: Criterion met
